Target: human GABAA α1β3γ2 receptor (Homo sapiens (Human), UniProt P14867+P18507)
Assay: Radioligand binding assay, competition for [3H]Flumazenil, HEK293F cells
Conditions: Ki α1β3γ2 (nM)/Ki α2β2γ1 (nM)
Assign γ2/γ1 Selectivity Ratio to each entry below.

Entry O=c1ccn2c(n1)CN=C(c1c(F)ccc(O)c1F)c1c-2ccc(Cl)c1Cl has what γ2/γ1 Selectivity Ratio?
16.0

// query: Cc1nnc2n1-c1ccc(Cl)c(Cl)c1C(c1c(F)ccc(O)c1F)=NC2
18.8

Follow-up entry: CN1C(=O)CN=C(c2cc(O)ccc2F)c2cc(Cl)ccc21 [RE-B, reference compound]
0.58

Try Cc1nnc2n1-c1ccc(C(F)(F)F)c(Cl)c1C(c1cc(O)ccc1F)=NC2 next.
32.6

Entry to check: Cc1nnc2n1-c1ccc(Cl)c(Cl)c1C(c1cc(O)ccc1F)=NC2
23.7

Then this compound: Cc1nnc2n1-c1ccc(C(F)(F)F)c(Cl)c1C(c1nc(O)ccc1F)=N[C@H]2C
279.6

// same read-out, input: CC(C)NC(=O)c1cn2c(n1)[C@H](C)N=C(c1nc(O)ccc1F)c1c-2ccc(C(F)(F)F)c1Cl
796.0

Next compound: C[C@@H]1N=C(c2nc(O)ccc2F)c2c(ccc(C(F)(F)F)c2Cl)-n2cc(C(=O)N3CCC3)nc21
280.8

Let us now turn to C[C@@H]1N=C(c2nc(O)ccc2F)c2c(ccc(C(F)(F)F)c2Cl)-n2c1nc1c2CCC1
634.3

// query: COC1CN(C(=O)c2nc3n(n2)-c2ccc(Cl)c(Cl)c2C(c2cc(O)ccc2F)=NC3)C1
15.6

Also Oc1ccc(F)c(C2=NCc3nncn3-c3ccc(C(F)(F)F)c(Cl)c32)c1 , if possible.
86.5

Now the compound Cc1cn2c(n1)[C@H](C)N=C(c1nc(O)ccc1Cl)c1c-2ccc(C(F)(F)F)c1Cl
679.2

Try this compound next: COC1CN(C(=O)c2nc3n(n2)-c2ccc(C(F)(F)F)c(Cl)c2C(c2cc(O)ccc2F)=NC3)C1
45.6

Can you handle C[C@@H]1N=C(c2c(F)ccc(O)c2F)c2c(ccc(Cl)c2Cl)-n2ccc(=O)nc21 next?
38.7

Again, but for CN1C(=O)CN=C(c2cc(O)ccc2F)c2c1ccc(C(F)(F)F)c2Cl
34.4
